Molecular target: T1, GlnRΔ18 (Bacillus subtilis, UniProt P37582 1-117, del118-135)
T1 sequence: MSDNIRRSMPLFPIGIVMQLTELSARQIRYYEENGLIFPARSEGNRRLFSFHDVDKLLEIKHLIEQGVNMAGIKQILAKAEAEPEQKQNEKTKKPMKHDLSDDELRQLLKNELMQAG
Assay: fluorescence polarization
recorded endpoint: pKd
Expect pKd as a plain number equal to -log10 of the molar concentration.

21mer FP (dsDNA) DNA 1: CGTGTAAGATTTCCTGACACG DNA 2: CGTGTCAGGAAATCTTACACG : 8.22

// moving on: another record for pKd
Data request: Can you look up the measured pKd of 17mer FP (dsDNA) DNA 1: TGTAAGATTTCCTGACA DNA 2: TGTCAGGAAATCTTACA for me?
Data returned: 8.09
